The reported measurements were obtained from patent US20250011410A1.

target: T1, canine NGF tagged at the C-terminus with the Flag tag (canine, UniProt A0A8I3PYI3 122-241); assay: SPR off-rate assay, Fab-SASA on BSA chip
T1 construct: mature; Expressed with baculovirus technology; also called feline NGF (processed form identical)
T1 sequence (A0A8I3PYI3 entry or part of it): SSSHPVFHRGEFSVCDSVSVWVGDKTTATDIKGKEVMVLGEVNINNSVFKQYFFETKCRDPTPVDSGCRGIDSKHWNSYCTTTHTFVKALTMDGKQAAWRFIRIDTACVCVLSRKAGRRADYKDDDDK
measure: Ratio (KD) WT/clones

Bench note: what Ratio (KD) WT/clones did AHF17591 (Fab, V domains shown, not shown: small tags and cut ends) VH: DVQLVESGGDLVKPGGSLRLTCVASGLSLTSSSMVWVRQAPGKGLQWVSTIYSNRGTYYTDSVKGRFTISKDNAENTLYLQMNNLKTEDTATYYCASIYYYDADYLHWYFDEWGQGALVTVSS VL: EIQMTQSPTSLSASVGDRVTITCRASEGIANNLSWYQQTPGKAPKLLIYATSILHSGVPSRFSGSGSGTDFTLTISSLQPEDFATYYCQQGYKWPLTFGGGTKLEITR show? 926

Consider the binder AHF17593 (Fab, V domains shown, not shown: small tags and cut ends, Fab-SASA, combinatorial library) VH: DVQLVESGGDLVKPGGSLRLTCVASGLSLTSSSMVWVRQAPGKGLQWVSTIYSNRGTYYTDSVKGRFTISKDNAENTLYLQMNNLKTEDTATYYCAQIYYYDADYLHWYFDFWGQGALVTVSS VL: EIQMTQSPTSLSASVGDRVTITCRASEGIANNLSWYQQTPGKAPKLLIYATSVLHSGVPSRFSGSGSGTDFTLTISSLQPEDFATYYCQQGYKWPLTFGGGTKLEITR and give its measured Ratio (KD) WT/clones. 563

Query (binder): AHF17606 (Fab, V domains shown, not shown: small tags and cut ends) VH: DVQLVESGGDLVKPGGSLRLTCVASGLSLTSSSMVWVRQAPGKGLQWVSTIYSNRGTYYTDSVKGRFTISKDNAENTLYLQMNNLKTEDTATYYCASIYYYDADYLHWYFDFWGQGALVTVSS VL: EIQMTQSPTSLSASVGDRVTITCRASEGIANNLSWYQQTPGKAPKLLIYATSNLHSGVPSRFSGSGSGTDFTLTISSLQPEDFATYYCQQGYKWPLTFGGGTKLEITR ; field requested: Ratio (KD) WT/clones 32.3

Quick one: Ratio (KD) WT/clones of AHF17601 (Fab, V domains shown, not shown: small tags and cut ends) VH: DVQLVESGGDLVKPGGSLRLTCVASGLSLTSSSMVWVRQAPGKGLQWVSTIYSNRGTYYTDSVKGRFTISKDNAENTLYLQMNNLKTEDTATYYCAQIYYYDADYLHWYFDEWGQGALVTVSS VL: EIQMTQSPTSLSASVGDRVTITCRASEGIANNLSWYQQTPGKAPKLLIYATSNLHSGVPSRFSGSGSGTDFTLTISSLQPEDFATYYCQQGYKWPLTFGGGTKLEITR ? 1010

Value lookup for Ratio (KD) WT/clones; key = AHF17608 (Fab, V domains shown, not shown: small tags and cut ends) VH: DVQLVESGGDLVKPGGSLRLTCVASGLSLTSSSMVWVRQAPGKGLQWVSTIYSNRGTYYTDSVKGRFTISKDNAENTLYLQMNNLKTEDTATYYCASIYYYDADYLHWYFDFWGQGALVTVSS VL: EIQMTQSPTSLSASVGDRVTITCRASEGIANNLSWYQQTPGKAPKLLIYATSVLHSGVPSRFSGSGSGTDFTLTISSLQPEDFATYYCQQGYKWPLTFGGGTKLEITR 788

I'd like to know its Ratio (KD) WT/clones. The binder in question is AHF17597 (Fab, V domains shown, not shown: small tags and cut ends) VH: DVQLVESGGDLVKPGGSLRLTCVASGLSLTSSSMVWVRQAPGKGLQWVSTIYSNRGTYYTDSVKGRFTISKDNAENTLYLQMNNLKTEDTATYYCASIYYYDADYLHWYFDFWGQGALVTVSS VL: EIQMTQSPTSLSASVGDRVTITCRASEGIQNNLSWYQQTPGKAPKLLIYATSILHSGVPSRFSGSGSGTDFTLTISSLQPEDFATYYCQQGYKWPLTFGGGTKLEITR 63.5

Entry under review: AHF17592 (Fab, V domains shown, not shown: small tags and cut ends) VH: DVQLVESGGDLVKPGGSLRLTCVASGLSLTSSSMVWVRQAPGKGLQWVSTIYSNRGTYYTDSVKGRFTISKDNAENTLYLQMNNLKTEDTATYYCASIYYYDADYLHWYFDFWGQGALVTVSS VL: EIQMTQSPTSLSASVGDRVTITCRASEGISNNLSWYQQTPGKAPKLLIYATSVLHSGVPSRFSGSGSGTDFTLTISSLQPEDFATYYCQQGYKWPLTFGGGTKLEITR . Reported Ratio (KD) WT/clones? 45.4

Reported Ratio (KD) WT/clones, binder AHF17609 (Fab, V domains shown, not shown: small tags and cut ends) VH: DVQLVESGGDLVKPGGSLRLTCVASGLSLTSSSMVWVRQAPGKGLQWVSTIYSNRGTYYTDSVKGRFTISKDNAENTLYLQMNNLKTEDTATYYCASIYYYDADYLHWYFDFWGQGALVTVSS VL: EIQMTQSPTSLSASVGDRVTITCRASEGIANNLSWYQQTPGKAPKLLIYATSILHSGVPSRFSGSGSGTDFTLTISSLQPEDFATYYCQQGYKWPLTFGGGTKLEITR : ____ 788
